# Assay Target: MIF (Homo sapiens, UniProt P14174)
# Construct: (catalogue number not given); host or cells: E. coli BL21 Star (DE3)
# Sequence (P14174 2-115 limits assumed): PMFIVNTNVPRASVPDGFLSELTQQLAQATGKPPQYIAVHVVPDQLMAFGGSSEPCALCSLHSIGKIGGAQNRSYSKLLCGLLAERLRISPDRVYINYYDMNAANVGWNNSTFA
# Assay Overview: Inhibition of MIF tautomerase activity (L-dopachrome methyl ester, absorbance at 475 nm)
# Format: biochemical
# Experimental Parameters: 30 μmol/L test substance, 10 to 50 nmol/L MIF, pH 6.2, control = 100%; read-out: Inhibition Rate of Tautomerase Reaction
Quantity: inhibition at 30 µM

The examples below pair each entry with its known result.
| Compound | Assay Target | inhibition at 30 µM |
| --- | --- | --- |
| CS(=O)(=O)Nc1cc2occc(=O)c2cc1Oc1ccccc1 [Compound D] | MIF (Homo sapiens, UniProt P14174) | 50 to 75% |
| CCS(=O)(=O)Nc1cc2occ(NC=O)c(=O)c2cc1Oc1ccccc1 [Compound H] | MIF (Homo sapiens, UniProt P14174) | ≥ 75% |
| CS(=O)(=O)Nc1cc2oc(C(N)=O)cc(=O)c2cc1Oc1ccccc1 [Compound E] | MIF (Homo sapiens, UniProt P14174) | ≥ 75% |
| CS(=O)(=O)Nc1cc2occ(C(N)=O)c(=O)c2cc1Oc1ccccc1 [Compound G] | MIF (Homo sapiens, UniProt P14174) | 50 to 75% |
| CC(=O)Nc1cc(=O)c2cc(Oc3ccccc3)c(NS(C)(=O)=O)cc2o1 [Compound F] | MIF (Homo sapiens, UniProt P14174) | ≥ 75% |
| CC(=O)Nc1coc2cc(NS(C)(=O)=O)c(Oc3ccccc3)cc2c1=O [Compound C] | MIF (Homo sapiens, UniProt P14174) | 50 to 75% |

Prompt line: Recorded inhibition at 30 µM for CS(=O)(=O)Nc1cc2occ(N)c(=O)c2cc1Oc1ccccc1 [Compound B] , please?
Response line: 50 to 75%

Prompt line: What value of inhibition at 30 µM has been recorded for this entry: CS(=O)(=O)Nc1cc2oc(-c3ccccc3)cc(=O)c2cc1Oc1ccccc1 [Compound I]
Response line: ≥ 75%

Prompt line: Would you mind telling me what inhibition at 30 µM value was observed for CS(=O)(=O)Nc1cc2occ(NC=O)c(=O)c2cc1Oc1ccccc1 [Compound A] ?
Response line: 50 to 75%
